Biological target: T1, Human TREM2 protein, on cells (human, UniProt Q9NZC2 19-230)
T1 construct: Wild type human TREM2 expressed with DAP12 on HEK293 cells (clone H6), or endogenous on primary human monocyte-derived macrophages; also called hTREM2-HEK; HEK293-H6
T1 sequence: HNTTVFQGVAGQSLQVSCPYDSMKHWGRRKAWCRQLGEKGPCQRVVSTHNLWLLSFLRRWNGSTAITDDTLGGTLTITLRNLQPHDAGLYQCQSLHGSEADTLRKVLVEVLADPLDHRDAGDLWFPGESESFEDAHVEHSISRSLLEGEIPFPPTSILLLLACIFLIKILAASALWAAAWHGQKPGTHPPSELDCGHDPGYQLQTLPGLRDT
Assay: cell binding, human TREM2-expressing HEK cells, flow cytometry titration

Binder	EC50
RS9.F6 (antibody, V domains shown) VH: QVQLQQPGAELVKPGASVKLSCKASGYTFTSYWMHWVKQSPGRGLEWIGRSDPTTGGTNYNEKFKTKATLTVDKPSSTAYMQLSSLTSDDSAVYYCVRTSGTGDYWGQGTSLTVSS VL: DVVMTQTPLSLPVSLGDQASISCRSSQSLVHNNGNTFLHWYLQKPGQSPKLLIYKVSNRFSGVPDRFSGSGSGTDFTLKISRVEAEDLGVYFCSQTTHVPPTFGGGTKLEIK	1.62 nM
RS9.F10 (antibody, V domains shown, same entries as RS9.F6; also called RS.F10) VH: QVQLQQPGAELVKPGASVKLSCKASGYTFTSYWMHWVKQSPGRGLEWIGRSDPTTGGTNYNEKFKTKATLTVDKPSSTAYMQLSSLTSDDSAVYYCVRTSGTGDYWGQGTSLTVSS VL: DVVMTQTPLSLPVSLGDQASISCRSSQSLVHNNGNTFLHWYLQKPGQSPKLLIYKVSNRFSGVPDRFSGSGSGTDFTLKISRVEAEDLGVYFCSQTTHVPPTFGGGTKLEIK	1.54 nM
24B4.A1 (antibody, V domains shown, Mouse hybridoma antibody, Ig2a, k; same entries as 26E2.A3; also called RS8.24B4.A1) VH: QVHLQQSGSELRSPGSSVKLSCKDFDSEVFPISYMSWIRQKPGHGFEWIGDILPSIGGRIYGVKFEDRATLDADTVSNTAYLELNSLTSEDSAIYYCARKDYGSLAYWGQGTLVTVSA VL: DVVMTQTPLSLPVSLGDQASISCRSSQSLVHINGNTYLQWFLQKPGQSPKLLIYKVSNRFSGVPDRFSGSGSGTAFTLKISRVEAEDLGVYFCSQSTHVPYTFGGGTKLEIK	7.5 nM
54C2.A1 (antibody, V domains shown, Mouse hybridoma antibody, Ig2b, k; also called RS8.54C2.A1) VH: QVHLQQSGSELRSPGSSVKLSCKDFDSEVFPIAYMSWVRQKPGHGFEWIGDILPSIGRRIYGVKFEDKATLDADTVSNTAYLELNSLTSEDSAIYYCTRKDYGSLAYWGQGTLVTVSA VL: DVVMTQTPLSLPVSLGDQASISCRSSQSLVHINGNTYLQWYLQKPGQSPKLLIYKVSNRFSGVPDRFSGSGSGTDFTLRISRVEAEDLGVYFCSQSTHLPYTFGGGTKLEIK	4.09 nM
